The reported numbers originate from patent US7211572B2.

Molecular target: HIV integrase (Human immunodeficiency virus type 1 group M subtype B, UniProt P12497, F1332H)
Construct: HIV integrase full length gene
Test: Determination of enzyme (HIV integrase) inhibitory activity
Details: recombinant HIV integrase (F185H), strand transfer ELISA, absorbance at 450 nm
Structures can show the parent of a compound that is named as a salt.
IC50 values, listed per item

Illustrative cases are given below, each with its answer.
1. O=C(Nc1cn2ccn(Cc3cccc(Cl)c3)c(=O)c2c(O)c1=O)C1CCCC1 ... 10 to 100 nM
2. CC(C)C(=O)c1cn2c(c(O)c1=O)C(=O)N(Cc1ccc(Cl)c(Cl)c1)CC2 ... < 10 nM
3. COCCNC(=O)c1cn2ccn(Cc3cccc(Cl)c3)c(=O)c2c(O)c1=O ... 10 to 100 nM
4. Cc1nn(Cc2cccc(Cl)c2)c(=O)c2c(O)c(=O)ccn12 [Example 162, hydrochloride] ... 10 to 100 nM
5. O=c1c(-c2ccncn2)cn2ccn(Cc3ccc(F)cc3)c(=O)c2c1O ... < 10 nM

What value of IC50 has been reported for the following compound? "O=C1c2c(O)c(=O)c(-c3nccs3)cn2CCN1CCCc1ccc(Cl)c(F)c1"
10 to 100 nM

Same again, this time with "O=C1c2c(O)c(=O)ccn2C2(CCCC2)CN1Cc1ccc(Cl)c(Cl)c1"
10 to 100 nM

Same again, this time with O=C1c2c(O)c(=O)c(-c3nccs3)cn2CCN1CCCc1cccc(Cl)c1 [Example 299, hydrochloride]
10 to 100 nM

Same again, this time with "CC(C)(C)C(=O)c1cn2c(c(O)c1=O)C(=O)N(Cc1ccc(F)cc1)CC2"
10 to 100 nM

Same again, this time with CSCCC1CN(Cc2ccc(Cl)c(Cl)c2)C(=O)c2c(O)c(=O)ccn21 (centres unmarked)
10 to 100 nM

Same again, this time with O=C1c2c(O)c(=O)c(-c3ccccn3)cn2CCN1Cc1ccc(F)cc1 [Example 363, hydrochloride]
10 to 100 nM
